- Test system: Escherichia coli
- experiment description: Antibacterial activity against Escherichia coli ATCC 25922 after 18 hrs by agar diffusion method
- Format: functional
- condition details: ATCC 25922, 18 h
Give measured MIC for each item. Keep answers brief.
Numbers only, in µg/mL.

Provide MIC values for the following items, in order.
1. CC(C)[C@@H]1NC(=O)[C@H]2CCCN2C1=O
2. CC1(C)S[C@@H]2[C@H](NC(=O)[C@H](N)c3ccc(O)cc3)C(=O)N2[C@H]1C(=O)O

1. 18.5
2. 0.8

---

Give measured MIC for each item. Keep answers brief.
- Tested on: Escherichia coli
- experiment description: Antibacterial activity against Escherichia coli ATCC 25922 after 18 hrs by agar diffusion method
- Assay type: functional
- condition details: ATCC 25922, 18 h

Provide MIC values for the following items, in order.
1. COc1ccc2c3c(n(C(=O)OC(C)(C)C)c2c1)[C@H](C=C(C)C)N1C(=O)[C@@H]2CCCN2C(=O)[C@@H]1C3
2. O=C1N[C@@H](Cc2ccc(O)cc2)C(=O)N2CCC[C@@H]12
3. CN(C)[C@@H]1C(O)=C(C(N)=O)C(=O)[C@@]2(O)C(O)=C3C(=O)c4c(O)cccc4[C@@](C)(O)[C@H]3C[C@@H]12
4. CC(C)=CCc1c(C[C@H]2C(=O)N3CCC[C@H]3C(=O)N2C(=O)OC(C)(C)C)c2ccccc2n1C(=O)OC(C)(C)C
5. CCC(C)[C@@H]1NC(=O)[C@@H]2CCCN2C1=O (some centres undefined)
6. CC(C)(C)OC(=O)n1cc(C[C@@H]2NC(=O)[C@@H]3CCCN3C2=O)c2ccccc21
7. CC(C)C[C@@H]1NC(=O)[C@@H]2CCCN2C1=O
8. CC(C)[C@@H]1NC(=O)[C@@H]2CCCN2C1=O

["16.4 µg/mL", "> 20 µg/mL", "3.9 µg/mL", "19 µg/mL", "> 20 µg/mL", "> 20 µg/mL", "> 20 µg/mL", "> 20 µg/mL"]

Quick one: MIC for O=C1N[C@@H](Cc2ccccc2)C(=O)N2CCC[C@@H]12 ?
> 20 µg/mL
